Listing: EC50 of selected molecules
systemTested: CFTR (Homo sapiens)
Sequence (P13569 with tags, fused parts or gaps DEL508-508): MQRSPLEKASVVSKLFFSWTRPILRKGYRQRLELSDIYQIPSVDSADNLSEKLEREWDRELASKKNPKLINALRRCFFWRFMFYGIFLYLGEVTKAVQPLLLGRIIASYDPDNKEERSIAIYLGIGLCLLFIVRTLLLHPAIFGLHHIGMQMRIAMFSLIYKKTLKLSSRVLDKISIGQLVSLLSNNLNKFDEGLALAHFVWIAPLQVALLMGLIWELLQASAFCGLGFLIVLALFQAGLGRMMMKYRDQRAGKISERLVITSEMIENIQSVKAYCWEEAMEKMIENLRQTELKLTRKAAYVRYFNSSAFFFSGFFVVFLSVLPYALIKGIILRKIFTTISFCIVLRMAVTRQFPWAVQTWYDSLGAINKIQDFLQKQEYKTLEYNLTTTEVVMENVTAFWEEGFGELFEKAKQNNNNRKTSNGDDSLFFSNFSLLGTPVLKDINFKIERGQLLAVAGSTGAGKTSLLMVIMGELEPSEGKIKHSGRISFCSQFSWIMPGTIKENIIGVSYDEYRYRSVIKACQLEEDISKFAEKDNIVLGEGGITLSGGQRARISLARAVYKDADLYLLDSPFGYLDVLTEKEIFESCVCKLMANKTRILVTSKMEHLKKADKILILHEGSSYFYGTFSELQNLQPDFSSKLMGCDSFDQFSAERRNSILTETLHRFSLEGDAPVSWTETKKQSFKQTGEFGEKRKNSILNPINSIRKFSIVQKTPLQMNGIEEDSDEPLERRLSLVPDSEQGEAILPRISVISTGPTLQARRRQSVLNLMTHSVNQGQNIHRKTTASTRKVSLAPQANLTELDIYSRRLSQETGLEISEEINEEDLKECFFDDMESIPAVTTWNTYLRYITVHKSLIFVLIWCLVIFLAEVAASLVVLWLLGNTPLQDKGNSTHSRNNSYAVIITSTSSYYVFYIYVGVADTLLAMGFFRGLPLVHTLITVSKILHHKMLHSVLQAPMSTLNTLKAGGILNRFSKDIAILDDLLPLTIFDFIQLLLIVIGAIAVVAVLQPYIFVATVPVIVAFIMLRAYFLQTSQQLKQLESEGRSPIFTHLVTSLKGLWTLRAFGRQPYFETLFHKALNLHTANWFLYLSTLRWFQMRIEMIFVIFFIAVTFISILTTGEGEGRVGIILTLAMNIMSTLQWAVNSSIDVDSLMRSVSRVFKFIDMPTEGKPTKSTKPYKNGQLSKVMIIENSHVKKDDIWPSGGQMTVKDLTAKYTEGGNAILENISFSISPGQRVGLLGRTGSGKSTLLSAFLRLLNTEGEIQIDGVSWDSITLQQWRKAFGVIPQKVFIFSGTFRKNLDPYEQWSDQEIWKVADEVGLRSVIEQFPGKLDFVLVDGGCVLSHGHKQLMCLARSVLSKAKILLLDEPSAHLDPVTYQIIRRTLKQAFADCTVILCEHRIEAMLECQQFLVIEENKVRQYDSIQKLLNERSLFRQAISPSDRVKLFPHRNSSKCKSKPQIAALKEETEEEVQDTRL
assaySummary: Membrane Potential Dye, Enteroid Assay B
Assay type: cell-based
experimentalSetup: Table 9, read-out: Ent. B EC50

Examples from the recorded data:
| molecule | EC50 |
| --- | --- |
| COC(=O)N(C)[C@H]1C[C@@]2(C1)C[C@H](N1C(=O)c3cccc(c3)S(=O)(=O)Nc3nc(cc(-c4c(C)cccc4C)n3)OC[C@H]1CC1(C(F)(F)F)CC1)C2 (stereo in doubt) | < 1 µM |
| Cc1cccc(C)c1-c1cc2nc(n1)NS(=O)(=O)c1cccc(c1)C(=O)N(C1CC(NC3CCC3)C1)[C@H](CC(C)C)CO2 (some centres unmarked) | < 1 µM |
| Cc1cccc(C)c1-c1cc2nc(n1)NS(=O)(=O)c1cccc(c1)C(=O)N([C@H]1C[C@@H](OC(C)C)C1)[C@H](CC(C)C)CO2 (single isomer, unassigned) [Compound 45] | < 1 µM |

Req: # query: EC50 | item COCCN1CC(N2C(=O)c3cccc(c3)S(=O)(=O)Nc3nc(cc(-c4c(C)cccc4C)n3)OC[C@H]2CC(C)C)CC1(C)C (stereo in doubt) | system: CFTR (Homo sapiens)
Resp: 1 to 3 µM

Req: Also check COCCCN(C)[C@H]1C[C@@H](N2C(=O)c3cccc(c3)S(=O)(=O)Nc3nc(cc(-c4c(C)cccc4C)n3)OC[C@H]2CC(C)C)C1 (stereo in doubt)
Resp: < 1 µM
